Molecular target: DNA gyrase (Escherichia coli) (UniProt P0AES6+P0AES4)
Assay: In vitro antibacterial activity against gram-negative organism Klebsiella pneumoniae ATCC 8045
Type: functional
Entries whose MIC is below 0.2 mg/L take rule met; entries at or above 0.2 mg/L take rule not met.

Determine if COc1c(N2CCC(N)C2)c(F)cn2c(=O)c(C(=O)O)cc(C3CC3)c12 (centres undefined) shows MIC strictly lower than 0.2 mg/L.
rule met

Determine if Cc1c(N2CC[C@@H]([C@@H](C)N)C2)c(F)cn2c(=O)c(C(=O)O)cc(C3CC3)c12 shows MIC strictly lower than 0.2 mg/L.
rule met

Determine if CCc1cc(C(=O)O)c(=O)n2ccc(N3CCC(N)C3)cc12.Cl (centres undefined) shows MIC strictly lower than 0.2 mg/L.
rule not met

Determine if Cc1c(N2C[C@@H]3[C@@H](N)[C@@H]3C2)c(F)cn2c(=O)c(C(=O)O)cc(C3CC3)c12 shows MIC strictly lower than 0.2 mg/L.
rule met

Determine if Cc1c(N2CCC(C)(N)C2)c(F)cn2c(=O)c(C(=O)O)cc(C3CC3)c12 (centres undefined) shows MIC strictly lower than 0.2 mg/L.
rule met

Determine if Cc1c(N2CCC(N(C)C)C2)c(F)cn2c(=O)c(C(=O)O)cc(C3CC3)c12 (centres undefined) shows MIC strictly lower than 0.2 mg/L.
rule met

Determine if CC(=O)N[C@H]1C[C@H](C)N(c2nc3c(-c4ccc(F)cc4F)cc(C(=O)O)c(=O)n3cc2F)C1 shows MIC strictly lower than 0.2 mg/L.
rule not met

Determine if Cc1c(N2CCCNCC2)c(F)cn2c(=O)c(C(=O)O)cc(C3CC3)c12 shows MIC strictly lower than 0.2 mg/L.
rule met

Determine if Cc1c(N2CCC(O)C2)c(F)cn2c(=O)c(C(=O)O)cc(C3CC3)c12 (centres undefined) shows MIC strictly lower than 0.2 mg/L.
rule met

Determine if Cc1c(N2CC[C@@]3(C[C@@H]3N)C2)c(F)cn2c(=O)c(C(=O)O)cc(C3CC3)c12 shows MIC strictly lower than 0.2 mg/L.
rule met

Determine if O=C(O)c1cc(C2CC2)c2nc(N3CCOCC3)c(F)cn2c1=O shows MIC strictly lower than 0.2 mg/L.
rule not met

Determine if Cc1c(N2C[C@@H]3C[C@H]2CN3)c(F)cn2c(=O)c(C(=O)O)cc(C3CC3)c12 shows MIC strictly lower than 0.2 mg/L.
rule met

Determine if Cc1c(N2CC[C@H](N)C2)c(F)cn2c(=O)c(C(=O)O)cc(C3CC3)c12 shows MIC strictly lower than 0.2 mg/L.
rule met

Determine if Cc1c(N2CCC(n3cccc3)C2)c(F)cn2c(=O)c(C(=O)O)cc(C3CC3)c12 (centres undefined) shows MIC strictly lower than 0.2 mg/L.
rule met

Determine if Cc1c(N2C[C@@H]3CCN[C@@H]3C2)c(F)cn2c(=O)c(C(=O)O)cc(C3CC3)c12 (stereo in doubt; (S,S)45o) shows MIC strictly lower than 0.2 mg/L.
rule met

Determine if COc1ccc(-c2cc(C(=O)O)c(=O)n3cc(F)c(N4CCC(N)C4)nc23)cc1 (centres undefined) shows MIC strictly lower than 0.2 mg/L.
rule not met
